# System: Staphylococcus aureus MW2 delta-mecA (mecA-)
# Experimental Protocol: IC50 (growth, competition assay)
# Study Conditions: fluorescent label: DsRed; cefoxitin: subinhibitory
pIC50: −log10 of the molar value.
Property Name: pIC50

INSERT INTO results (molecule, property_name, test_result) VALUES
  ('NCCOB(c1ccccc1)c1ccccc1', 'pIC50', 4.95),
  ('Cc1onc(-c2ccccc2)c1C(=O)N[C@@H]1C(=O)N2[C@@H]1SC(C)(C)[C@@H]2C(=O)O [BACTOCILL]', 'pIC50', '> 5.01'),
  ('CCN(CC)CCN(Cc1ccc(-c2ccc(C(F)(F)F)cc2)cc1)C(=O)Cn1c(SCc2ccc(F)cc2)nc(=O)c2c1CCC2', 'pIC50', '> 5.01'),
  ('COc1cc2c(c(OC)c1OC)-c1ccc(=O)c(O)cc1[C@@H](NC(C)=O)CC2', 'pIC50', 4.34);

Task: Reported pIC50 for Cc1cc(Nc2nc(N[C@@H](C)c3ccc(F)cc3)c(C#N)cc2F)n[nH]1 : what is it?
Result: 5.62

Task: What measured pIC50 goes with O=c1[nH]cc(F)c(=O)[nH]1 [5-Fluorouracil] ?
Result: > 5.01

Task: Form field: reported pIC50 of CN[C@H](CC(C)C)C(=O)N[C@H]1C(=O)N[C@@H](CC(N)=O)C(=O)N[C@H]2C(=O)N[C@H]3C(=O)N[C@H](C(=O)N[C@H](C(=O)O)c4cc(O)cc(O)c4-c4cc3ccc4O)[C@H](O)c3ccc(c(Cl)c3)Oc3cc2cc(c3O[C@@H]2O[C@H](CO)[C@@H](O)[C@H](O)[C@H]2O[C@H]2C[C@](C)(N)[C@H](O)[C@H](C)O2)Oc2ccc(cc2Cl)[C@H]1O [VANCOCIN]
Result: > 5.01

Task: Given COc1cc(/C=C/C(=O)CC(=O)/C=C/c2ccc(O)c(OC)c2)ccc1O [CURCUMIN] , state its recorded pIC50.
Result: > 5.01

###

# Test system: Staphylococcus aureus MW2 (mecA+)
# Experimental Protocol: IC50 (growth, competition assay)
# Study Conditions: fluorescent label: DsRed; cefoxitin: subinhibitory
Property Name: IC50 (µM)
I only need the number, in µM, no unit after it.

INSERT INTO results (smiles_text, test_result) VALUES
  ('C[C@H]1[C@H](C)CC[C@]2(C(=O)O)CC[C@]3(C)C(=CC[C@@H]4[C@@]5(C)C[C@@H](O)[C@H](O)[C@@](C)(CO)[C@@H]5CC[C@]43C)[C@H]12', 109);

Proceed to the following item.
Task: Need IC50, item O=C(O)c1ccc(Nc2ncc3c(n2)-c2ccc(Cl)cc2C(c2c(F)cccc2F)=NC3)cc1
Result: 13.7

###

This section presents compounds with their documented IC50 values.
# System: Staphylococcus aureus MW2 delta-mecA (mecA-)
# Experimental Protocol: IC50 (growth, competition assay)
# Study Conditions: fluorescent label: DsRed; cefoxitin: subinhibitory
Where a name gives a salt, the structure may show the parent alone.

Solved entries:
INSERT INTO measurements (compound, test_result) VALUES
  ('CC(=O)OCC1=C(C(=O)O)N2C(=O)[C@@H](NC(=O)Cc3cccs3)[C@H]2SC1 [Cephalothin sodium]', '< 9.85 µM'),
  ('CN(C)[C@@H]1C(=O)C(C(N)=O)=C(O)[C@@]2(O)C(=O)C3=C(O)c4c(O)ccc(Cl)c4[C@@H](O)[C@H]3C[C@@H]12 [Demeclocycline hydrochloride]', '< 9.85 µM'),
  ('CCc1cc(-c2n[nH]c(C)c2-c2ccc3c(c2)OCCO3)c(O)cc1O', '15.4 µM'),
  ('OC(CNCC(O)C1CCc2cc(F)ccc2O1)C1CCc2cc(F)ccc2O1 (stereo not drawn) [Nebivolol]', '35 µM'),
  ('CC[C@H](c1ccc(O)cc1)[C@@H](CC)c1ccc(O)cc1 [HEXESTROL]', '< 9.85 µM');

Task: // IC50 lookup, key: CCOc1ccc2ccccc2c1C(=O)N[C@@H]1C(=O)N2[C@@H]1SC(C)(C)[C@@H]2C(=O)O [NALLPEN]
Result: < 9.85 µM

Task: Look at this compound and give its reported IC50. Oc1ccc(Cl)cc1Cc1cc(Cl)ccc1O [DICHLOROPHEN]
Result: < 9.85 µM

Task: // query IC50 value for entry C=CCc1ccccc1OCC(O)CNC1(C)CCC(C(C)(C)NC(=O)CBr)CC1 (stereo not drawn) [Bromoacetyl alprenolol menthane]
Result: < 9.85 µM
